Target: Human MGAT-2 (Homo sapiens, UniProt Q3SYC2)
Construct: made in house; host or cells: Sf9 cells (membrane preparation)
Sequence (Q3SYC2 whole entry): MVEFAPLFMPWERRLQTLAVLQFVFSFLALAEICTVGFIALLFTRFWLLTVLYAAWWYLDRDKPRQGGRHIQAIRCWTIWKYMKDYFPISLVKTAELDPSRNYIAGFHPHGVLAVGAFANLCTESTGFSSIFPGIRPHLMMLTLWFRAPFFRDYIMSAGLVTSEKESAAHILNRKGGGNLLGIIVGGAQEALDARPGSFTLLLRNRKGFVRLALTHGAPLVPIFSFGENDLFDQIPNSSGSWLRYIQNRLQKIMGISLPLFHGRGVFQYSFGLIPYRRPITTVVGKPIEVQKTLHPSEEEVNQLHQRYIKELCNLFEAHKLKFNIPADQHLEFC
Experiment: MGAT LCMS Assay
Type: biochemical
Settings: human MGAT2 membranes expressed in Sf9 cells; 100 μM 2-oleoylglycerol, 15 μM oleoyl-coenzyme A; read-out: h-MGAT LCMS IC50
pIC50: −log10 of the molar value.
Listing of entries alongside the reported pIC50.
Measured Attribute: pIC50

{"Compound": "O=C(Nc1ccc(OC(F)(F)F)cc1)c1c(-c2ccn(CC3CC3)n2)cc(-c2ccc(OCCCCCC(F)(F)F)cc2F)[nH]c1=O", "Measured Attribute": "pIC50", "Observed Value": 7.72}
{"Compound": "COc1ccc(-c2cc(-c3ccc(OCCCCCC(F)(F)F)cc3)[nH]c(=O)c2C(=O)NS(=O)(=O)C2CC2)cc1", "Measured Attribute": "pIC50", "Observed Value": 6.76}
{"Compound": "CCc1ccc(-c2cc(-c3ccc(OCCCC(F)(F)F)cc3Cl)[nH]c(=O)c2-n2nn[nH]c2=O)s1", "Measured Attribute": "pIC50", "Observed Value": 6.60}
{"Compound": "Cc1ccc(-c2cc(-c3ccc(OCCCC(F)(F)F)cc3F)[nH]c(=O)c2C(=O)Nc2ccc(OC(F)(F)F)cc2)cc1", "Measured Attribute": "pIC50", "Observed Value": 7.57}
{"Compound": "CCCCCc1ccc(-c2cc(-c3ccc(C)cc3)c(C(=O)Nc3ccc(OCC)cc3)c(=O)[nH]2)cc1", "Measured Attribute": "pIC50", "Observed Value": 7.07}
{"Compound": "CCc1ccc(-c2cc(-c3ccc(/C=C/C4CC4)cc3)[nH]c(=O)c2-c2nn[nH]n2)s1", "Measured Attribute": "pIC50", "Observed Value": 8.40}
{"Compound": "O=c1[nH]c(-c2ccc(OCCCCCC(F)(F)F)cc2)cc(-c2ccc(OC(F)F)cc2)c1-c1nnn[nH]1", "Measured Attribute": "pIC50", "Observed Value": 7.85}
{"Compound": "Cc1ccc(-c2c(F)c(-c3ccc(OCCCCCC(F)(F)F)cc3)[nH]c(=O)c2C(=O)NS(C)(=O)=O)cc1", "Measured Attribute": "pIC50", "Observed Value": 7.54}
{"Compound": "CCCC1CCC(c2ccc(-c3cc(-c4ccc(CC)s4)c(-c4nn[nH]n4)c(=O)[nH]3)cc2)CC1 (stereo not drawn)", "Measured Attribute": "pIC50", "Observed Value": 7.41}
{"Compound": "CCOc1ccc(NC(=O)c2c(-c3ccc(C)cc3)cc(C3CCCCC3)[nH]c2=O)cc1", "Measured Attribute": "pIC50", "Observed Value": 6.86}
{"Compound": "Cc1ccc(-c2cc(-c3ccc(OCCCC(F)(F)F)cc3)[nH]c(=O)c2-n2nn[nH]c2=O)cc1", "Measured Attribute": "pIC50", "Observed Value": 7.31}
{"Compound": "CC(C)n1ccc(-c2cc(-c3ccc(OCCCCCC(F)(F)F)cc3)[nH]c(=O)c2-c2nnn[nH]2)c1", "Measured Attribute": "pIC50", "Observed Value": 7.52}
{"Compound": "Cc1ccc(-c2cc(-c3ccc(CCC4CC4)cc3)[nH]c(=O)c2-c2nnn[nH]2)cc1", "Measured Attribute": "pIC50", "Observed Value": 6.86}
{"Compound": "O=c1[nH]c(-c2ccc(OCCCCCC(F)(F)F)cc2F)cc(-c2ccc(C3CC3)cc2)c1-c1nnn[nH]1", "Measured Attribute": "pIC50", "Observed Value": 7.96}
{"Compound": "CCc1ccc(-c2cc(-c3ccc(C4CCC(C)(C)CC4)cc3)[nH]c(=O)c2-c2nn[nH]n2)s1", "Measured Attribute": "pIC50", "Observed Value": 7.12}
